Give measured pEC50 for each item. Keep answers brief.
Molecular target: Marmoset Type II GnRH-R (Callithrix jacchus)
Construct: Full length marmoset Type II GnRH receptor was produced by PCR; expressed in transfected cells; host or cells: COS-7 cells, transient transfection (Superfect), plasmid pcDNA3.1+
Sequence (Q95MG6 whole entry): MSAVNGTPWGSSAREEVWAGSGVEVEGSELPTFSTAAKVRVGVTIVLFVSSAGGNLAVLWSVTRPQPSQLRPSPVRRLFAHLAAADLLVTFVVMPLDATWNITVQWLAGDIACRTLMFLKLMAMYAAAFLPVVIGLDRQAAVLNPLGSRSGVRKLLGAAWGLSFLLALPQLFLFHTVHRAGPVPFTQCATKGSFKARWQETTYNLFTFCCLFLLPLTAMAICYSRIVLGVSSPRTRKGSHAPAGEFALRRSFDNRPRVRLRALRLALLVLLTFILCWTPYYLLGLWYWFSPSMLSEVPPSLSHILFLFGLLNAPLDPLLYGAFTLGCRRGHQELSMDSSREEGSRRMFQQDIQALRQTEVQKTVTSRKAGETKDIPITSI
Experiment: Total inositol phosphate production in transfected COS-7 cells
Assay type: cell-based
Conditions: FIG. 5; COS-7 cells; s.e.m., n=2; read-out: EC50, total inositol phosphate production
Square brackets hold non-standard residues; d marks the D form. Peptide text beside a SMILES is read from it. pGlu = O=C1CC[C@@H](C(=O)O)N1
One number for each entry, as −log10 of the molar value.

Recorded results for 2 molecules are shown here.
# Molecule, System, Metric Name, Value
records = [
    ("NC(=O)CNC(=O)[C@@H]1CCCN1C(=O)[C@H](Cc1ccc(O)cc1)NC(=O)[C@H](Cc1c[nH]c2ccccc12)NC(=O)CNC(=O)[C@H](Cc1c[nH]cn1)NC(=O)[C@H](CO)NC(=O)[C@H](Cc1c[nH]c2ccccc12)NC(=O)[C@H](Cc1c[nH]cn1)NC(=O)[C@@H]1CCC(=O)N1 [GnRH II, [His^5,Trp^7,Tyr^8]GnRH I] ([pGlu]HWSHGWYPG-NH2; C-terminus assumed)", "Marmoset Type II GnRH-R (Callithrix jacchus)", "pEC50", 9.34),
    ("CC(C)C[C@H](NC(=O)[C@H](Cc1c[nH]c2ccccc12)NC(=O)CNC(=O)[C@H](Cc1ccc(O)cc1)NC(=O)[C@H](CO)NC(=O)[C@H](Cc1c[nH]c2ccccc12)NC(=O)[C@H](Cc1c[nH]cn1)NC(=O)[C@@H]1CCC(=O)N1)C(=O)N1CCC[C@H]1C(=O)NCC(N)=O [sGnRH, [Trp^7,Leu^8]GnRH I] ([pGlu]HWSYGWLPG-NH2; C-terminus assumed)", "Marmoset Type II GnRH-R (Callithrix jacchus)", "pEC50", 8.06),
]

Please look up its pEC50: CC(C)C[C@H](NC(=O)CNC(=O)[C@H](Cc1ccc(O)cc1)NC(=O)[C@H](CO)NC(=O)[C@H](Cc1c[nH]c2ccccc12)NC(=O)[C@H](Cc1c[nH]cn1)NC(=O)[C@@H]1CCC(=O)N1)C(=O)N[C@@H](CCCNC(=N)N)C(=O)N1CCC[C@H]1C(=O)NCC(N)=O
7.48

Values were extracted from patent US20030124585A1.
